# method-notes: MB-102 pig plasma concentration after subcutaneous dosing
# Assay type: in vivo
# recorded-conditions: Yorkshire, pig, plasma, subcutaneous, 3.2 mg/kg, pig 52771, SubQ, 3.2 mpk, 15 min; read-out: MB-102 Pig Plasma Conc.
assay-endpoint: concentration at 15 min (ng/mL)
Answers are plain numbers, in ng/mL.

concentration at 15 min recorded for this compound, Nc1nc(C(=O)N[C@H](CO)C(=O)O)c(N)nc1C(=O)N[C@H](CO)C(=O)O , is 6130

----------
# method-notes: MB-102 pig plasma concentration after IV dosing
# Type: in vivo
# recorded-conditions: Yorkshire, plasma, 3.2 mg/kg; pig 48019, IV, 3.2 mpk, 90 min; read-out: MB-102 Pig Plasma Conc.
# Experimental: Juvenile Yorkshire pigs weighing approximately 25 kg were anesthetized, their body temperature stabilized, and an IV port surgically placed. […] After the skin was dry the sensors were attached with commercially available skin adhesive and background skin auto-fluorescence measurements were recorded. […] At this point glomerular elimination of MB-102 by the kidneys led to a decrease of fluorescence signal over time. […]
assay-endpoint: concentration at 90 min
Mention the unit after the number when you answer.

concentration at 90 min recorded for this compound, Nc1nc(C(=O)N[C@H](CO)C(=O)O)c(N)nc1C(=O)N[C@H](CO)C(=O)O , is 4680 ng/mL

----------
# method-notes: MB-102 pig plasma concentration after intramuscular dosing
# Format: in vivo
# recorded-conditions: Yorkshire, plasma, intramuscular, 3.2 mg/kg; pig 09801, IM, 3.2 mpk, 285 min; read-out: MB-102 Pig Plasma Conc.
assay-endpoint: concentration at 285 min

concentration at 285 min recorded for this molecule, Nc1nc(C(=O)N[C@H](CO)C(=O)O)c(N)nc1C(=O)N[C@H](CO)C(=O)O , is 373 ng/mL

----------
# method-notes: MB-102 pig plasma concentration after IV dosing
# Format: in vivo
# recorded-conditions: Yorkshire, plasma, 3.2 mg/kg; pig 48019, IV, 3.2 mpk, 195 min; read-out: MB-102 Pig Plasma Conc.
assay-endpoint: concentration at 195 min (ng/mL)
One number for each entry, in ng/mL.

concentration at 195 min recorded for this compound, Nc1nc(C(=O)N[C@H](CO)C(=O)O)c(N)nc1C(=O)N[C@H](CO)C(=O)O [MB-102] , is 2000

----------
# method-notes: MB-102 pig plasma concentration after subcutaneous dosing
# Assay type: in vivo
# recorded-conditions: Yorkshire, pig, plasma, subcutaneous, 3.2 mg/kg, pig 09802, SubQ, 3.2 mpk, 345 min; read-out: MB-102 Pig Plasma Conc.
assay-endpoint: concentration at 345 min (µg/mL)
Numbers only, in µg/mL.

concentration at 345 min recorded for this molecule, Nc1nc(C(=O)N[C@H](CO)C(=O)O)c(N)nc1C(=O)N[C@H](CO)C(=O)O , is 0.914

----------
# method-notes: MB-102 pig plasma concentration after subcutaneous dosing
# Assay type: in vivo
# recorded-conditions: Yorkshire, pig, plasma, subcutaneous, 3.2 mg/kg, pig 09802, SubQ, 3.2 mpk, 15 min; read-out: MB-102 Pig Plasma Conc.
assay-endpoint: concentration at 15 min (µg/mL)
Answers are plain numbers, in µg/mL.

concentration at 15 min recorded for this compound, Nc1nc(C(=O)N[C@H](CO)C(=O)O)c(N)nc1C(=O)N[C@H](CO)C(=O)O , is 6.67
